target.system: endopeptidase 24.15 (Rattus norvegicus, UniProt P24155)
Sequence (P24155 whole entry): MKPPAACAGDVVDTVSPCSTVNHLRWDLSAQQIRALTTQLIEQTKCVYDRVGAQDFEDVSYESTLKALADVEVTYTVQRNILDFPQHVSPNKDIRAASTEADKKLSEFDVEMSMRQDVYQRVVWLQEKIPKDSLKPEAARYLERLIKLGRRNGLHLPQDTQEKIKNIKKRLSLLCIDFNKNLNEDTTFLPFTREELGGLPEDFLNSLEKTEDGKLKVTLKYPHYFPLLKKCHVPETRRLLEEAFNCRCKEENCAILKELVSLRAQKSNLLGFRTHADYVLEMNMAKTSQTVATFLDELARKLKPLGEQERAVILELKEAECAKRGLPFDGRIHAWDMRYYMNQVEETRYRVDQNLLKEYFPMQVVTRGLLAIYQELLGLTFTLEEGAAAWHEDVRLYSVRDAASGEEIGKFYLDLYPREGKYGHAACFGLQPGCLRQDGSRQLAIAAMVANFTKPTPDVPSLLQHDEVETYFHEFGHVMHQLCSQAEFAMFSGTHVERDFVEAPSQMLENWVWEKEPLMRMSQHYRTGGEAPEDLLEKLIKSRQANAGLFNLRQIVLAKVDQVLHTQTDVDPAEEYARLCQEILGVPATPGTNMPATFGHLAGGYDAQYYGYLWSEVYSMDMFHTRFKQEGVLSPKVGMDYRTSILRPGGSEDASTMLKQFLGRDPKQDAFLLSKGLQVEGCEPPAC
pIC50: −log10 of the molar value.
attribute.measured: pIC50

Challenge: Find the recorded pIC50 belonging to C[C@H](NC(=O)[C@@H]1CCCN1C(=O)[C@@H]1CCCN1C(=O)[C@@H](O)[C@H](N)Cc1ccccc1)C(N)=O and report it.
Response given: < 3.10

###

target.system: prolidase (Sus scrofa)
Sequence (A0A5G2QQV1 1-463): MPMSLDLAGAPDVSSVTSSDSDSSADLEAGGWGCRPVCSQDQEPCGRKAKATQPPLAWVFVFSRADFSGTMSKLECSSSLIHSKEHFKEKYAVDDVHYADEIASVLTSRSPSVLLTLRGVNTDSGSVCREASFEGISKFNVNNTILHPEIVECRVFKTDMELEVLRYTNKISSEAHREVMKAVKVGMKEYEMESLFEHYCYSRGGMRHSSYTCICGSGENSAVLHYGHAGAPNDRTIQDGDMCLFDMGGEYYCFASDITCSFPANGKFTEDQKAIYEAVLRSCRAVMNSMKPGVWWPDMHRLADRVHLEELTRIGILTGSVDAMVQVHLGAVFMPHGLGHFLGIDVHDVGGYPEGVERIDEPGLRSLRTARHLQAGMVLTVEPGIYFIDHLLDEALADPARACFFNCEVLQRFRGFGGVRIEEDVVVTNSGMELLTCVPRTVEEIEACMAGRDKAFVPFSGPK
attribute.measured: IC50 (µM)
Supply the numeric figure in µM, leaving out any unit text.

Challenge: Find the recorded IC50 belonging to C[C@H](NC(=O)[C@@H]1CCCN1C(=O)[C@@H]1CCCN1C(=O)[C@@H](O)[C@H](N)Cc1ccccc1)C(N)=O [apstatin] and report it.
Response given: 4.9
